tested.target: antibodies against ISV in serum sample IHUS#B09032311A20
procedure.text: ECL drug-displacement assay vs labelled SEQ ID NO:1
Measured % reduction of individual entries
readout.label: % reduction (%)

binder	measured.result
SEQ ID NO: 23, Wildtype VHH (VHH) VHH: EVQLVESGGGLVQAGGSLRLSCAASGRTFNNYAMGWFRRAPGKEREFVAAITRSGVRSGVSAIYGDSVKDRFTISRDNAKNTLYLQMNSLKPEDTAVYTCAASAIGSGALRRFEYDYSGQGTQVTVSS	53
SEQ ID NO: 24, Wildtype VHH + A14P (VHH) VHH: EVQLVESGGGLVQPGGSLRLSCAASGRTFNNYAMGWFRRAPGKEREFVAAITRSGVRSGVSAIYGDSVKDRFTISRDNAKNTLYLQMNSLKPEDTAVYTCAASAIGSGALRRFEYDYSGQGTQVTVSS	96
SEQ ID NO: 26, Wildtype VHH + Q108L (VHH) VHH: EVQLVESGGGLVQAGGSLRLSCAASGRTFNNYAMGWFRRAPGKEREFVAAITRSGVRSGVSAIYGDSVKDRFTISRDNAKNTLYLQMNSLKPEDTAVYTCAASAIGSGALRRFEYDYSGQGTLVTVSS	62
SEQ ID NO: 25, Wildtype VHH + K83R (VHH) VHH: EVQLVESGGGLVQAGGSLRLSCAASGRTFNNYAMGWFRRAPGKEREFVAAITRSGVRSGVSAIYGDSVKDRFTISRDNAKNTLYLQMNSLRPEDTAVYTCAASAIGSGALRRFEYDYSGQGTQVTVSS	63
